Molecular target: T1, human Trop-2-His (human, UniProt P09758 27-274, limits assumed)
T1 construct: by analogy with the macaque construct it is probably the extracellular domain with a His tag; also called Trop-2-His protein
T1 sequence: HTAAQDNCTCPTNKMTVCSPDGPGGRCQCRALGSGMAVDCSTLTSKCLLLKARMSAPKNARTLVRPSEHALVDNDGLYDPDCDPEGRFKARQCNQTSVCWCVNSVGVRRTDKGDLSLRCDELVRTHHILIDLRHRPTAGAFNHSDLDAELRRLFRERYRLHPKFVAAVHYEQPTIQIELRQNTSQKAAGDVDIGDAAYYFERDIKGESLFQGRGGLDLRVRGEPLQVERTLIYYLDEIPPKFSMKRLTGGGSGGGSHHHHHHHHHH
Assay: SPR (Biacore 8K), antibody captured, Trop-2-His as analyte
observed_property: log10 koff (log10 of the value in s⁻¹)
Note the log scale: values are log10 of koff expressed in s⁻¹.

Use these answered entries as a reference point.
{"binder": "hz-Ab35-2.3 (antibody, human IgG1, kappa, V domains shown, Humanized antibody) VH: QVQLVQSGAEVKKPGASVKVSCKASGYTFTSSDINWVRQRPGQGLEWMGWIYPRDGSKKYNEKFKGRVTMTVDTSTSTVYMELSSLRSEDTAVYYCATRFATVVSNYGLDPWGQGTLVTVSS VL: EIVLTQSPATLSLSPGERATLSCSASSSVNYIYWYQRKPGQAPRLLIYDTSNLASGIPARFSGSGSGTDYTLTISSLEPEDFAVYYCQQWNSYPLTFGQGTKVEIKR", "log10 koff": -3.55}
{"binder": "hz-Ab2-2.4 (antibody, human IgG1, kappa, V domains shown, Humanized antibody) VH: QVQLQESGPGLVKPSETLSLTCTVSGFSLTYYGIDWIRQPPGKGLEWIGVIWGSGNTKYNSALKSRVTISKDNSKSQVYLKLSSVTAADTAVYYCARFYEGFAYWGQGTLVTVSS VL: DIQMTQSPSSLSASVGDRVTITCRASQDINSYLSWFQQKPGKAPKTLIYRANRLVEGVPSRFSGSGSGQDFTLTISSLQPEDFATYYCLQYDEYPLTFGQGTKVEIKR", "log10 koff": -2.32}
{"binder": "hz-Ab2-2.2 (antibody, human IgG1, kappa, V domains shown, Humanized antibody) VH: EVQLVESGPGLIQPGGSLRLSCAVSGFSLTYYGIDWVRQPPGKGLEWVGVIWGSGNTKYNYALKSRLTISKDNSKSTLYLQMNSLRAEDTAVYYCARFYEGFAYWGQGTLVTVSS VL: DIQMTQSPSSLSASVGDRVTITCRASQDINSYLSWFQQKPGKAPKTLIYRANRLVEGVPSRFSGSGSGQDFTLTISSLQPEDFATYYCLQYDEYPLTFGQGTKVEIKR", "log10 koff": -3.23}
{"binder": "hz-Ab21-2.1 (antibody, human IgG1, kappa, V domains shown, Humanized antibody) VH: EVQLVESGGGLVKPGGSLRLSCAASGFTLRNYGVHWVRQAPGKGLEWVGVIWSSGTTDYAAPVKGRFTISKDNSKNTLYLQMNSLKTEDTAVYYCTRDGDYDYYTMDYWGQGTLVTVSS VL: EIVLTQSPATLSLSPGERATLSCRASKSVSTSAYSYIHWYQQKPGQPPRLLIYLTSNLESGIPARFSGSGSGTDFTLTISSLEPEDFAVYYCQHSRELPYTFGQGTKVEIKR", "log10 koff": -3.25}
{"binder": "hz-Ab35-2.2 (antibody, human IgG1, kappa, V domains shown, Humanized antibody) VH: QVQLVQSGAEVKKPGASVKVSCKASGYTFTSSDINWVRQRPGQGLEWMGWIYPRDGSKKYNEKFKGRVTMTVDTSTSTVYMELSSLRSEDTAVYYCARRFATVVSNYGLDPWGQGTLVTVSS VL: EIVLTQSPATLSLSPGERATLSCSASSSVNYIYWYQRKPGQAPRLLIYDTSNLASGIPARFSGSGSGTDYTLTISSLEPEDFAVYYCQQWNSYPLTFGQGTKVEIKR", "log10 koff": -2.45}

hz-Ab2-1.4 (antibody, human IgG1, kappa, V domains shown, Humanized antibody) VH: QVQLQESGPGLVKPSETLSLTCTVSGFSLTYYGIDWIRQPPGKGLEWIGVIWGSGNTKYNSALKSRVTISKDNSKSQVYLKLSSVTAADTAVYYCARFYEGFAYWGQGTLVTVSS VL: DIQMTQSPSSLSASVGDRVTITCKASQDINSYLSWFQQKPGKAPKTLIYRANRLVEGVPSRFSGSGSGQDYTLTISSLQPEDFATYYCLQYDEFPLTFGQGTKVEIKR has a reported log10 koff of -2.55

hz-Ab2-2.1 (antibody, human IgG1, kappa, V domains shown, Humanized antibody) VH: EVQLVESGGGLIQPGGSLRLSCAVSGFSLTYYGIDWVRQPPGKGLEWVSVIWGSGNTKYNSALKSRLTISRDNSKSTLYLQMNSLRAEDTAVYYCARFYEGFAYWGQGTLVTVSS VL: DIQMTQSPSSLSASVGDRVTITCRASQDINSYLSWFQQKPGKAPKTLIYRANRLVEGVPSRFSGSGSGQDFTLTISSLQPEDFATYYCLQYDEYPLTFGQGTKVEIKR has a reported log10 koff of -3.64

hz-Ab21-1.1 (antibody, human IgG1, kappa, V domains shown, Humanized antibody) VH: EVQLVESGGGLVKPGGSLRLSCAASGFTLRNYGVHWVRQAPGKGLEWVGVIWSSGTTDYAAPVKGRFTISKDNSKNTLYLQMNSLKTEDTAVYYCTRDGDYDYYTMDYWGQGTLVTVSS VL: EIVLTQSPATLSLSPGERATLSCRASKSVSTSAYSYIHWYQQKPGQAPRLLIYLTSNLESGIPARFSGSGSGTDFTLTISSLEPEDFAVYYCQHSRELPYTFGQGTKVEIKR has a reported log10 koff of -3.29

TINA (antibody, INN chains, looked up, V domains shown) VH: QVQLVQSGAEVKKPGASVKVSCKASGYTFTTAGMQWVRQAPGQGLEWMGWINTHSGVPKYAEDFKGRVTISADTSTSTAYLQLSSLKSEDTAVYYCARSGFGSSYWYFDVWGQGTLVTVSS VL: DIQMTQSPSSLSASVGDRVTITCKASQDVSTAVAWYQQKPGKAPKLLIYSASYRYTGVPSRFSGSGSGTDFTLTISSLQPEDFAVYYCQQHYITPLTFGQGTKLEIK has a reported log10 koff of -2.62
